Tested on: PBMC (polyclonal gluten-specific T cells) of paediatric and adult CD patients
Protocol text: IFN-γ ELISpot of PBMC after 3 day oral wheat challenge (SFU, % of maximal peptide response, dominance scores, EC50; Examples 5-6)
Format: cell-based, human
Condition summary: subject U, 11-17yrs, following wheat challenge
Assay endpoint: Cross-reactive T cell response

A selection of reference data follows.
QPFPQPEQPTPIQ :: 21 SFU
PEQPFQPEQPFPQQ :: 6 SFU
PEQPQPFPEQPVPQQP :: 1 SFU
QPFPQPEQPFPWQP :: 17 SFU
QPFPQPEQPIPYQ :: 55 SFU

What is its Cross-reactive T cell response for PBMC (polyclonal gluten-specific T cells) of paediatric and adult CD patients? Entry: QPFPQPEQPFRQQ
21 SFU

What is its Cross-reactive T cell response for PBMC (polyclonal gluten-specific T cells) of paediatric and adult CD patients? Entry: NPLQPEQPFPLQPQPP
9 SFU

What is its Cross-reactive T cell response for PBMC (polyclonal gluten-specific T cells) of paediatric and adult CD patients? Entry: QPFPQPEQPFPQS
27 SFU

What is its Cross-reactive T cell response for PBMC (polyclonal gluten-specific T cells) of paediatric and adult CD patients? Entry: QPEQPFPLQPEQPVP
9 SFU

What is its Cross-reactive T cell response for PBMC (polyclonal gluten-specific T cells) of paediatric and adult CD patients? Entry: QEFPQPEQPFPQQ
23 SFU

What is its Cross-reactive T cell response for PBMC (polyclonal gluten-specific T cells) of paediatric and adult CD patients? Entry: QLFPLPEQPFPQP
9 SFU

What is its Cross-reactive T cell response for PBMC (polyclonal gluten-specific T cells) of paediatric and adult CD patients? Entry: QPFPQPEQPFPLQ
18 SFU

What is its Cross-reactive T cell response for PBMC (polyclonal gluten-specific T cells) of paediatric and adult CD patients? Entry: PFPLQPEQPVPEQPQ
10 SFU

What is its Cross-reactive T cell response for PBMC (polyclonal gluten-specific T cells) of paediatric and adult CD patients? Entry: FPQTEQPEQPFPQP
5 SFU

What is its Cross-reactive T cell response for PBMC (polyclonal gluten-specific T cells) of paediatric and adult CD patients? Entry: LPFPQPEQPFVVV
8 SFU

These data points were gathered from patent US20170232083A1.
